- target-system: recombinant human NAE enzyme (Homo sapiens)
- Construct: His (N); made in house; host or cells: Sf9 insect cells (baculovirus, Bac-to-Bac)
- Sequence (Q8TBC4 whole entry): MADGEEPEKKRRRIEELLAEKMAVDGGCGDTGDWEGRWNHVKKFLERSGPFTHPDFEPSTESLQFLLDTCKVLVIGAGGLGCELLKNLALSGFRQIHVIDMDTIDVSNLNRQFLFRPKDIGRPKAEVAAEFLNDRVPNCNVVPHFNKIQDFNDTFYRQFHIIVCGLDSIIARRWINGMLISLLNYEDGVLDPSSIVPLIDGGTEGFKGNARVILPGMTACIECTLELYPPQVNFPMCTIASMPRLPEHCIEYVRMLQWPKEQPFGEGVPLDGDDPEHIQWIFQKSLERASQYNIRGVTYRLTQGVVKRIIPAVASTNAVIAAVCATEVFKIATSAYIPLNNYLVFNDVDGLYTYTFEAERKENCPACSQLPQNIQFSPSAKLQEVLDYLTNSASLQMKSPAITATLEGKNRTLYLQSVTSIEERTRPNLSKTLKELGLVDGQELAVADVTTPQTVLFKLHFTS
- Sequence (Q13564 whole entry partner): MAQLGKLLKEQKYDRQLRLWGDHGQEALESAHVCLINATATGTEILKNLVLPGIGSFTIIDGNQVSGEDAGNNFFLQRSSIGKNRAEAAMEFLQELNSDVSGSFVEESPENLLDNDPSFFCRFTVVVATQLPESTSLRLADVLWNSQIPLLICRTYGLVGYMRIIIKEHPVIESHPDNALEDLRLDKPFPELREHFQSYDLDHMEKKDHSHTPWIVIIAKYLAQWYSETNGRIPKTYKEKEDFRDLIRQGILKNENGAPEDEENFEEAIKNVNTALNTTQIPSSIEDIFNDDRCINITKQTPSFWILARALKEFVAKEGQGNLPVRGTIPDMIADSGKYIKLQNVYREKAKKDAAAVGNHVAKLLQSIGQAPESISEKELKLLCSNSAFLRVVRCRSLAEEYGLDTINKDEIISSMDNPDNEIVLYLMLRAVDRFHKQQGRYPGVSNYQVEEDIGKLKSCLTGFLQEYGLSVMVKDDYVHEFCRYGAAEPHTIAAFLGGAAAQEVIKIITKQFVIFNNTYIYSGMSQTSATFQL
- experimental-protocol: Nedd8-Activating Enzyme (NAE) HTRF Assay
- Assay type: biochemical
- measurement-conditions: 20 μM ATP, bound given in μM
quantity-kind: IC50

Task: Please give the documented IC50 of NS(=O)(=O)OC[C@@H]1C[C@@H](Oc2cc(N3CCc4ccccc4C3)ncn2)C[C@@H]1O
Result: > 10 µM

Task: // fetch IC50 given entry Cn1c(-c2ccccc2)nc2ncnc(N[C@@H]3C[C@@H](COS(N)(=O)=O)[C@@H](O)C3)c21
Result: < 10 µM

Task: Assign IC50 to the following record: Cc1nc(NCc2ccccc2)cc(N[C@@H]2C[C@H](COS(N)(=O)=O)[C@@H](O)[C@H]2O)n1
Result: > 10 µM

Task: Quick one: give measured IC50 for NS(=O)(=O)OC[C@H]1C[C@@H](NC(=O)c2ccccn2)[C@H](O)[C@@H]1O
Result: > 10 µM

Task: For the molecule CN(Cc1ccccc1)c1nccc(N[C@@H]2C[C@H](COS(N)(=O)=O)[C@@H](O)[C@H]2O)n1 , report IC50.
Result: > 10 µM

Task: Identify measured IC50 corresponding to NS(=O)(=O)OC[C@@H]1C[C@@H](Oc2ccncn2)C[C@@H]1O
Result: > 10 µM

Task: Let me know recorded IC50 for NS(=O)(=O)OC[C@@H]1C[C@@H](Nc2ncnc3[nH]c(-c4ccccc4-c4ccccc4)nc23)C[C@@H]1O , thanks.
Result: < 10 µM
